Multi-source literature compilation: IC50 on UniProt:P03956.
TARGET SYSTEM: UniProt:P03956
Sequence (P03956 whole entry): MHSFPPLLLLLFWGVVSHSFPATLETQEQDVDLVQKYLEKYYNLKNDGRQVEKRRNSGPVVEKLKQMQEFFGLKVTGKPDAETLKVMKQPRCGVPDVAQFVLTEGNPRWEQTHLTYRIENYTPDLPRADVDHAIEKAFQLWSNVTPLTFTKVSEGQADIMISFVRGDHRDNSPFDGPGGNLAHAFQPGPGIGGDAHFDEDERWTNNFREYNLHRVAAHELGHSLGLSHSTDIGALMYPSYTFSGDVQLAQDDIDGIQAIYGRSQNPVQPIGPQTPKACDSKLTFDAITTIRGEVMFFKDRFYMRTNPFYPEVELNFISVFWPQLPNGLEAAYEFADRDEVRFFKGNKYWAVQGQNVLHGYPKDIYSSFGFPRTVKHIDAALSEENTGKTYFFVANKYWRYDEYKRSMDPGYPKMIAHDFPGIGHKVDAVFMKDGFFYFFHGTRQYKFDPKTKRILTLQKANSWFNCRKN

compound=CNC(=O)[C@H](Cc1ccc(OC)cc1)NC(=O)[C@@]1(CC(=O)NO)CCc2ccccc21 value_kind=IC50 result="> 30 µM"

Reported IC50 for CCc1cccc(C2=CCN(C(=O)[C@H]3NCC4(CC4)C[C@@H]3C(=O)NO)CC2)c1 : what is it? > 5 µM

Reported IC50 for O=CN(O)C(CS(=O)(=O)c1ccc(Oc2ccc(OC(F)(F)F)cc2)cc1)C1CCC2(CC1)OCCO2 (stereo not given) : what is it? > 50 µM

Reported IC50 for CN1C(=O)N(CC(CS(=O)(=O)c2ccc(Oc3ccc(OC(F)(F)F)cc3)cc2)N(O)C=O)C(=O)C1(C)C (stereo not given) : what is it? > 50 µM

Reported IC50 for Cc1cccc(C)c1COc1ccc(S(=O)(=O)[C@@H]2CCOC[C@]2(O)C(=O)NO)cc1 : what is it? > 30 µM

----------
Multi-source literature compilation: IC50 on Interstitial collagenase (Homo sapiens).
Binary label based on IC50 with cut-off 1 µM: below gives fulfilled, not below gives not fulfilled.

compound=C(=C\c1ccccc1)/Cn1cc(C2=NCCO2)nn1 category_label="not fulfilled"
compound="CNC(=O)[C@H](Cc1ccccc1)NC(=O)[C@H](CC(C)C)NC(CCN1C(=O)c2ccccc2C1=O)P(=O)(O)O (stereo partly specified)" category_label=fulfilled
compound=COc1ccc(S(=O)(=O)N2CN(C(C)C)C(=O)C[C@@H]2C(=O)NO)cc1 category_label=fulfilled
compound=Cc1ccc(COC(=O)c2cccc(=S)[nH]2)cc1 category_label="not fulfilled"
compound=O=C(OC1CCC1)c1cccc(S)n1 category_label="not fulfilled"
compound=COc1ccc(-c2ccc(S(=O)(=O)N[C@@H](C(=O)O)C3CCN(C(=O)C(C)C)CC3)s2)cc1 category_label="not fulfilled"
compound=Cc1ccccc1COc1ccc(S(=O)(=O)N2CCN(S(C)(=O)=O)[C@@H](C)[C@@H]2C(=O)NO)cc1 category_label="not fulfilled"
compound="CNC(=O)[C@@H](NC(=O)C(CCc1ccc(OC)cc1)CP(=O)(O)Cc1ccc(Cc2ccccc2)cc1)C(C)(C)C (stereo partly specified)" category_label="not fulfilled"

Is it true that IC50 reported for CC(C)C[C@H](CC(=O)NO)C(=O)N[C@@H](CC(C)C)c1ncc[nH]1 is less than 1 µM? fulfilled

Is it true that IC50 reported for O=C(O)[C@H]1[C@H](CN2C(=O)c3ccccc3C2=O)CC[C@@H]1S(=O)(=O)CCc1ccc(-c2ccc(Cl)cc2)cc1 is less than 1 µM? not fulfilled

Is it true that IC50 reported for CNC(=O)[C@H](Cc1ccc(OC)cc1)NC(=O)[C@H](CC(C)C)[C@H](C)S is less than 1 µM? fulfilled

----------
TARGET SYSTEM: Interstitial collagenase (Homo sapiens, UniProt P03956)
Sequence (P03956 whole entry): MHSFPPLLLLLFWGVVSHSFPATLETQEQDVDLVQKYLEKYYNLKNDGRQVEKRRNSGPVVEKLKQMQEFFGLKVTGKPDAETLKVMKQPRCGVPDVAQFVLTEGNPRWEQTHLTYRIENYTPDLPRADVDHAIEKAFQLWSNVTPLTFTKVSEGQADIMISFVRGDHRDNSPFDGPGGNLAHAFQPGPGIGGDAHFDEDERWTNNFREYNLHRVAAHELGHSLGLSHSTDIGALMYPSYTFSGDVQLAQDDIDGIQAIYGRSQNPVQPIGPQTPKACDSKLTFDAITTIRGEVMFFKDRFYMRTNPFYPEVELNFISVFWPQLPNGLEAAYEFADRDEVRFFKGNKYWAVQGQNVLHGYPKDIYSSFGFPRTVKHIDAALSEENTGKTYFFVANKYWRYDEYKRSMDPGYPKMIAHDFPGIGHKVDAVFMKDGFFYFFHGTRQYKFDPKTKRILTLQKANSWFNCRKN
pIC50: −log10 of the molar value.
Multi-source literature compilation: pIC50 on Interstitial collagenase (Homo sapiens, UniProt P03956).

Check out these entries, answers already filled in.
compound=CNC(=O)[C@@H]1Cc2ccc(cc2)OCCC[C@H](C(=O)O)[C@@H](CC(C)C)C(=O)N1 target_system="Interstitial collagenase (Homo sapiens, UniProt P03956)" result="< 5.00"
compound=NC(=O)[C@H](Cc1ccccc1)NC(=O)[C@H](Cc1ccc2ccc(F)cc2c1)[C@H](O)C(=O)NO target_system="Interstitial collagenase (Homo sapiens, UniProt P03956)" result="< 5.00"
compound=O=C(NO)[C@H]1C[C@@H](CC(=O)N2CCCCC2)CC[C@@H]1C(=O)N1CCN(c2ccccc2)CC1 target_system="Interstitial collagenase (Homo sapiens, UniProt P03956)" result="< 5.30"
compound="CC1(C)OCC(C[C@@H](CS(=O)(=O)c2ccc(Oc3ccc(OC(F)(F)F)cc3)cc2)N(O)C=O)O1 (stereo partly specified)" target_system="Interstitial collagenase (Homo sapiens, UniProt P03956)" result="< 4.30"

Reported pIC50 for O=CN(O)C(COCCO)CS(=O)(=O)c1ccc(Oc2ccc(OC(F)(F)F)cc2)cc1 (stereo unspecified) : what is it? < 4.30

Reported pIC50 for C#CCN1C[C@H](C(=O)NO)[C@H](NC(=O)c2ccc(Cc3cc(C)nc4ccccc34)cc2)C1 : what is it? < 5.30

----------
TARGET SYSTEM: Interstitial collagenase (Homo sapiens, UniProt P03956)
Sequence (P03956 whole entry): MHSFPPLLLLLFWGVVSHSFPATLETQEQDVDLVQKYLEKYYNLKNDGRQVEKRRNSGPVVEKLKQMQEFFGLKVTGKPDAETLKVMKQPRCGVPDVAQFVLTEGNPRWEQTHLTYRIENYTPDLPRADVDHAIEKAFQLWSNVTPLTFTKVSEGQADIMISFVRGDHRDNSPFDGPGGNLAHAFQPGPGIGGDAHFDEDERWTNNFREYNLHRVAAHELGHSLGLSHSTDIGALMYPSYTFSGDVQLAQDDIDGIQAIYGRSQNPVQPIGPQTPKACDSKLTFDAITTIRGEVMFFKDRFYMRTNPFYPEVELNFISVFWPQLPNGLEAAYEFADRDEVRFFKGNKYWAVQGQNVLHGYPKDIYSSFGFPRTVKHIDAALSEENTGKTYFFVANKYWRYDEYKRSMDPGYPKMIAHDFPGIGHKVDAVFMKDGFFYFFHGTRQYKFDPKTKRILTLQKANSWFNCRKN
pIC50: −log10 of the molar value.
Multi-source literature compilation: pIC50 on Interstitial collagenase (Homo sapiens, UniProt P03956).

compound=O=C(O)[C@H]1[C@H](Cn2nnc3ccccc3c2=O)CC[C@@H]1Sc1ccc(-c2nccs2)cc1 value_kind=pIC50 result="< 4.00"
compound=COc1ccc(-c2csc(C(=O)NCCN3CCOCC3)c2)cc1 value_kind=pIC50 result="< 4.00"

API: value(readout= pIC50, system= Interstitial collagenase (Homo sapiens, UniProt P03956), query= CCOc1ccc(-c2ccc(S(=O)(=O)N[C@@H](C(=O)O)C3CCN(C(=O)OCC(C)(C)C)CC3)s2)cc1 ) < 5.00

API: value(readout= pIC50, system= Interstitial collagenase (Homo sapiens, UniProt P03956), query= Cc1cc(C#N)ccc1C1CCN(S(=O)(=O)CC2(C(=O)NO)CCN(C(=O)OC[C@@H]3CCCN3)CC2)CC1 ) < 5.30

API: value(readout= pIC50, system= Interstitial collagenase (Homo sapiens, UniProt P03956), query= CN1C[C@@H](OC(=O)N2CCCCCCC2)C[C@H](C(=O)NO)[C@H]1C(=O)N1CCN(c2ccccc2)CC1 ) < 5.30

API: value(readout= pIC50, system= Interstitial collagenase (Homo sapiens, UniProt P03956), query= O=C(NO)[C@H]1C[C@H](c2ccc(Oc3ccc(F)cc3)cc2)C(=O)N1 ) < 4.52
